assay_target: Torsin-1A (Homo sapiens) (UniProt O14656)
Sequence (O14656 whole entry, looked up): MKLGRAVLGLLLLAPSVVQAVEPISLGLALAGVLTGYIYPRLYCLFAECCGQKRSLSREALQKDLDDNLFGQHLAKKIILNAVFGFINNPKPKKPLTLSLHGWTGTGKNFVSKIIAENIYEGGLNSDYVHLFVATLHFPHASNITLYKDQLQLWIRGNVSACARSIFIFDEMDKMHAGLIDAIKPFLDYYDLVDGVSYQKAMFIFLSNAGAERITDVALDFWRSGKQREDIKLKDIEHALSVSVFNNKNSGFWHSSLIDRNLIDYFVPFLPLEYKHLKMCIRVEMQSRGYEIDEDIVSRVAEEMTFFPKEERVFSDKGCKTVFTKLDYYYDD
assay_name: torsin A binders from cell lysate, primary screen, small-molecule microarray, wild-type, 635/667 nm (AID 1149)
test_conditions: COS7 hTOR1A-WT lysate, 635 nm fluorescence, higher = more signal
Parameter threshold = 0.4. Response is Yes when composite z-score meets or exceeds it, else No.

Solved cases (2 shown):
compound | group
COC(=O)[C@@]1(Cc2ccccc2)[C@H]2c3cc(C(=O)N(C)C)n(Cc4nc5ccccc5[nH]4)c3C[C@H]2CN1C(=O)c1ccccc1 | Yes
C=CCNC(=O)[C@@H]1[C@H]2C(=O)O[C@H](c3ccccc3)[C@H](c3ccccc3)N2[C@H](c2ccc(OCCO)cc2)[C@@]12C(=O)Nc1ccc(C#CC3=CCCCC3)cc12 | Yes

Lookup: API: above_or_equal(metric=composite z-score, cutoff=0.4) for item `COc1cccc(C)c1NC(=O)O[C@H]1[C@H](OC(=O)Nc2ccc3c(c2)OCO3)[C@H](OC(=O)Nc2ccc3c(c2)OCO3)[C@@H](OC)O[C@@H]1CO`
Found: No

Lookup: Next record, please: `COC(=O)[C@@]1(Cc2ccc(F)cc2)[C@H]2c3cc(C(=O)N(C)C)n(CCF)c3C[C@H]2CN1C(=O)c1ccccc1`
Found: Yes

Lookup: Try this compound too: `COCCOC(=O)N1C(=O)[C@@]2(c3ccccc31)[C@H](C(=O)Nc1nc3ccccc3s1)[C@H]1C(=O)O[C@H](c3ccccc3)[C@H](c3ccccc3)N1[C@@H]2c1ccccc1OCCO`
Found: No

* * *

assay_target: Dickkopf-related protein 1 (Homo sapiens)
assay_name: DKK1 binders on small-molecule microarrays, primary screen, biochemical, small-molecule microarray, 635 nm fluorescence scan (AID 1106);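 note: score merges emission near 667 nm with signal to noise over three replicate slides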
test_conditions: DKK1 binding, higher = more signal
Collected composite z-score values appear next to each entry.
Please respond with just the number, no unit label.

Below are worked cases with known answers.
compound | assay_target | quantity_measured | recorded_measurement
O=C(NCC(F)(F)F)[C@@H]1c2ccccc2C(=O)N(Cc2cc(C(F)(F)F)cc(C(F)(F)F)c2)[C@H]1c1ccc(CO)cc1 | Dickkopf-related protein 1 (Homo sapiens) | composite z-score | 0.382
[N-]=[N+]=NCc1ccccc1C[C@@]1(C(=O)NCCN2CCOCC2)N=C(c2ccc(OCCCO)cc2)O[C@@H]1c1ccccc1 | Dickkopf-related protein 1 (Homo sapiens) | composite z-score | -0.342
C=C[C@@H](CO)NS(=O)(=O)c1ccc(Br)cc1 | Dickkopf-related protein 1 (Homo sapiens) | composite z-score | -0.0213
COc1ccc(CCNC(=O)[C@@]2(c3ccc([N+](=O)[O-])cc3)CC(=O)N(C3CCCCC3)[C@@H]2c2ccc(CO)cc2I)cc1 | Dickkopf-related protein 1 (Homo sapiens) | composite z-score | 0.608
COC(=O)[C@@]1(Cc2ccc(F)cc2)[C@H]2c3cc(C(=O)N(C)C)n(Cc4ccc(C(F)(F)F)nc4)c3C[C@H]2CN1C(=O)c1ccccc1 | Dickkopf-related protein 1 (Homo sapiens) | composite z-score | 0.638
C=CCNC(=O)[C@H]1[C@@H]2C(=O)O[C@@H](c3ccccc3)[C@@H](c3ccccc3)N2[C@@H](c2ccc(O)cc2)[C@]12C(=O)N(C(=O)OCCOC)c1ccc(C#Cc3ccc(OC)cc3)cc12 | Dickkopf-related protein 1 (Homo sapiens) | composite z-score | 0.211

Lookup: Request body: readout composite z-score, system Dickkopf-related protein 1 (Homo sapiens), query COC(=O)c1ccc(OC)c(/C=C\CC(OC(=O)c2ccncc2)c2ccccc2)c1 (configuration not stated) . Return the value.
Found: 0.631

* * *

assay_name: modulators of S6 phosphorylation in cells, primary screen, cell-based, A549, cytoblot, luminescence, serum-stimulated (AID 1158);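 note: serum-stimulated A549 lung adenocarcinoma cells; signal is phosphorylated S6 detected by cytoblot immunostaining with HRP secondary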
test_conditions: A549 phospho-S6 cytoblot, 5 h, higher = more signal
quantity_measured: z-score
The response must contain the number and no unit.

Example entries begin here.
molecule | recorded_measurement
COc1ccc([Si](C)(C)[C@H]2[C@H](CC(=O)N(CCO)Cc3ccccc3)O[C@@]3(C(=O)N(Cc4ccc(N5C(=O)c6cccc7cccc5c67)cc4)c4ccccc43)[C@@H]2C)cc1 | 0.294
CC(C)Cc1ccc(CN2CC[C@@H](NC(=O)c3ccccc3)C2)cc1 | 0.0681
CC(C)(C)OC(=O)CC[C@]1(C(N)=O)N=C(c2ccc(OCCCO)cc2)O[C@H]1c1ccccc1N=[N+]=[N-] | -0.3
C=C(CCCC)/C(=C/C[C@@H](OC(C)=O)c1ccc(OCCO)cc1)c1cc(C(=O)OC)ccc1OC | -0.265
COC(=O)[C@@]1(Cc2ccc(OC)cc2)[C@H]2c3cc(C(=O)N(C)C)n(Cc4c(CO)[nH]cc(C)c4=O)c3C[C@H]2CN1C(=O)c1ccccc1 | -0.507

Lookup: Entry under review: `CC[C@@H]1C=C(C(=O)O)[C@H](c2cccc(Cl)c2)N1S(=O)(=O)c1ccc(C)cc1` . Reported z-score?
Found: -0.861

Lookup: Could you do the same for `C[C@]1(C(=O)NCC(F)(F)F)c2ccccc2C(=O)N(Cc2cc(C(F)(F)F)cc(C(F)(F)F)c2)[C@H]1c1ccc(CO)cc1` , please?
Found: 0.361

Lookup: Please do the same for [N-]=[N+]=Nc1ccccc1C[C@@]1(C(=O)NCC(O)CO)N=C(c2ccc(OCCCO)cc2)O[C@@H]1c1ccccc1N=[N+]=[N-] (stereo not given in full) as well.
Found: 0.191

Lookup: Try the molecule CCCCN1CC=CC23O[C@@H]4/C=C\CCC(C)OC(=O)C4[C@H]2C(=O)N(CCO)[C@@H]3C1=O (stereo not given in full)
Found: 0.7

Lookup: Request: `COc1ccc([Si](C)(C)[C@H]2[C@H](CCO)O[C@@]3(C(=O)N(Cc4ccccc4)c4ccc(NC(=O)[C@H](C)O)cc43)[C@@H]2C)cc1`
Found: 0.0757

* * *

assay_name: MM1S myeloma cell viability, profiling panel, resazurin fluorescence, basal, 24 h, PK04 Diversity Set (AID 1174);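 note: MM1S multiple myeloma cell line; test concentration not given here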
test_conditions: higher = more signal, called active from +8 up or from −8 down
The source made the active and inactive calls.
z-score reference

compound | z-score
O=C1c2ccccc2[C@@]2(Cc3ccccc3N(CC(F)(F)F)C2=O)[C@H](c2ccc(CO)cc2)N1Cc1ccccc1 | -0.0925 (inactive)
O=C1NC(=O)C2C1C=CC(C(O)C(c1ccccc1)c1ccccc1)N2Nc1ccccn1 (configuration not stated) | -0.408 (inactive)
CCOC(=O)C[C@H]1[C@H](OC(=O)c2ccccc2-c2ccccc2)[C@@H](NC(=O)CC(C)C)c2cc(OCCCO)ccc2N1C(=O)c1ccccc1 | 0.351 (inactive)
CC(C)N1C(=O)[C@@]2(Cc3ccccc31)c1ccccc1C(=O)N(Cc1ccccc1C(F)(F)F)[C@H]2c1ccc(CO)cc1 | 0.0922 (inactive)
[N-]=[N+]=NCc1ccccc1[C@H]1OC(c2ccc(OCCCO)cc2)=N[C@@]1(CCS(=O)(=O)c1ccccc1)C(=O)NCCN1CCOCC1 | 0.285 (inactive)
CC(C)C[C@@H]1NC(=O)[C@H]2C[C@@H](C(=O)O)[C@@H](c3cccc(OCCO)c3)N2C1=O | -0.636 (inactive)

Now take the following compound into account.
Lookup: Bench note: what z-score did `COC(=O)C(CC#Cc1ccc2c(c1)[C@]1(C(=O)N2)[C@H](C(=O)N2CCCCCCC2)[C@H]2C(=O)O[C@H](c3ccccc3)[C@H](c3ccccc3)N2[C@@H]1c1ccc(OCCO)cc1)C(=O)OC` show?
Found: 0.229 (inactive)

* * *

assay_target: Neurogenic locus notch homolog protein 3 (Homo sapiens)
assay_name: NOTCH3 binders on small-molecule microarray, primary screen, biochemical, 635/667 nm fluorescence (AID 1096)
test_conditions: NOTCH3 binding, 635 nm fluorescence, higher = more signal
composite z-score of -0.6 or higher: TRUE. Under -0.6: FALSE.

Here are 6 compounds together with their reported answers.
compound | group
CCCCCCCCCCC(O)C1C=CC2C(=O)N(C)C(=O)C2N1Nc1ccccc1 (configuration not stated) | FALSE
CC(C)[Si]1(C(C)C)OCc2cc(-c3ccc(-c4ccc(Cl)c(Cl)c4)o3)nc(-c3ccc(Oc4ccccc4)cc3)c21 | FALSE
O=C1C2C=CC(C(O)C3CCCCC3)N(Nc3ccccc3F)C2C(=O)N1c1ccccc1 (configuration not stated) | TRUE
C=CC[C@]1(C(=O)NCC(O)CO)N=C(c2ccc(OCCCO)cc2)O[C@H]1c1ccccc1CN=[N+]=[N-] (some centres not stated) | FALSE
COCCOC(=O)N1C(=O)[C@@]2(c3cc(C#CCNC(N)=O)ccc31)[C@H](C(N)=O)[C@H]1C(=O)O[C@H](c3ccccc3)[C@H](c3ccccc3)N1[C@@H]2c1ccc(O)cc1 | TRUE
COC(=O)C[C@H]1O[C@]2(C(=O)N(C)c3ccccc32)[C@@H](C)[C@@H]1[Si](C)(C)c1ccccc1 | TRUE

Lookup: Kindly determine if composite z-score recorded for `COCCOC(=O)N1C(=O)[C@@]2(c3cc(C#CCNC(N)=O)ccc31)[C@H](C(=O)N1CCN(c3ncccn3)CC1)[C@H]1C(=O)O[C@H](c3ccccc3)[C@H](c3ccccc3)N1[C@@H]2c1ccc(O)cc1` is above or exactly -0.6.
Found: FALSE
